Tested on: SF-268 CNS
Assay: NCI-60 one-dose screen, 48 h (100 = growth as untreated, 0 = no growth, -100 = all killed)
Conditions: 10 µM unless noted
About 83,000 compounds went through this panel and 20% of them were active in at least one assay; those are over-represented in the sample as a whole.
growth: recorded values
Assay Endpoint: growth (%)

Compound	Assay Endpoint	Meas Value
Nc1ccc([N+](=O)[O-])c2c1Oc1ccccc1O2	growth	107
CNc1ccc(C(=O)CC(O)CCC(C)C2OC(=O)CC(O)CC(=O)CC(O)CC(O)CC(O)CC(O)CC3(O)CC(O)C(C(=O)OC)C(CC(O[C@@H]4O[C@H](C)[C@@H](O)[C@H](N)[C@@H]4O)/C=C/C=C/C=C/C=C/C=C/C=C/C=C/C2C)O3)cc1 (some centres not stated)	growth	-5.42
CC(=O)O[C@H]1C[C@H](O[C@H]2[C@@H](O)C[C@H](O[C@H]3[C@@H](O)C[C@H](O[C@H]4CC[C@@]5(C)C(CCC6C5C[C@@H](O)[C@]5(C)[C@@H](C7=CC(=O)OC7)CC[C@]65O)C4)O[C@@H]3C)O[C@@H]2C)O[C@H](C)[C@H]1O[C@@H]1O[C@H](CO)[C@@H](O)[C@H](O)[C@H]1O (some centres not stated)	growth	-100
c1ccc2nc(OCCN3CC3)ccc2c1	growth	96.6
Oc1ccc(Br)cc1CN1CCN(Cc2ccc(Cl)cc2)CC1	growth	64.2
Oc1ccc(O)c2c1C1(Cl)C(Cl)=C(Cl)C2(Cl)C1(Cl)Cl	growth	44.7
OB([O][Hg][c]1ccccc1)[O][Hg][c]1ccccc1	growth	-51.2

###

Test system: UACC-257 melanoma
Assay: NCI-60 one-dose screen, 48 h (100 = growth as untreated, 0 = no growth, -100 = all killed)
Details: 10 µM unless noted
About 83,000 compounds went through this panel and 20% of them were active in at least one assay; those are over-represented in the sample as a whole.
In this section we review reported growth values for a set of molecules.
Assay Endpoint: growth (%)

> print(dat)
                                    molecule      tested.target  assay.endpoint  meas.value
 1  COc1cc2c(cc1OC)CN(C)C(C)C2 (centres undefined)  UACC-257 melanoma          growth         104
 2  O=[As]c1ccc(C(=O)c2ccc(Oc3ccccc3)cc2)cc1 (centres undefined)  UACC-257 melanoma          growth       -99.4
 3  CCOc1c(Cl)cc(CNC(C)C(O)c2ccccc2)cc1OC (centres undefined)  UACC-257 melanoma          growth        51.4
 4  O=c1[nH]c2cc(Cl)ccc2n1C1CCN(CCCC(c2ccc(F)cc2)c2ccc(F)cc2)CC1  UACC-257 melanoma          growth       -81.4
 5  COc1cc(N(CCCl)CCCl)ccc1C=Nc1ccccc1C(=O)O  UACC-257 melanoma          growth          91
 6                            NC(=O)NC(=O)CI  UACC-257 melanoma          growth        79.1
 7  COc1cc(C2CC(=O)Nc3nc(N)[se]c32)cc(OC)c1OC (centres undefined)  UACC-257 melanoma          growth        99.6
 8  COc1ccc(/C=C(/C(=O)N2CCCC2)c2cc(OC)c(OC)c(OC)c2)cc1N  UACC-257 melanoma          growth        53.8
 9  COc1ccc(/C=C\c2cc(OC)c(OC)c(OC)c2)cc1N/C=C\C(=O)c1c[nH]c2ccccc12  UACC-257 melanoma          growth        78.2
10         COc1cc(CNCCc2ccc(Cl)cc2)cc(OC)c1O  UACC-257 melanoma          growth        90.2
11  O=CN1N=C(c2ccccc2)CC1c1sc(N(CCCl)CCCl)nc1Cl (centres undefined)  UACC-257 melanoma          growth        97.4
12  N#C[Se]CCN1C(=O)C2C(C1=O)[C@H]1C=C[C@@H]2S1 (some centres undefined)  UACC-257 melanoma          growth        10.9
13  COc1ccc(C2=NN(c3ccccc3)C(c3sc(N(CCCl)CCCl)nc3Cl)C2)cc1 (centres undefined)  UACC-257 melanoma          growth        89.7
14  CO[C@@H]([CH2][Hg][S]C#N)[C@@H]([CH2][Hg][S]C#N)OC  UACC-257 melanoma          growth        86.8
15  O=C1C=CC(=O)C2C1C1(Cl)C(Cl)=C(Cl)C2(Cl)C1(Cl)Cl (centres undefined)  UACC-257 melanoma          growth        57.5
16  Cc1ccc2oc(=O)c3c(c2c1)OC(N)=C(C#N)C3c1ccco1 (centres undefined)  UACC-257 melanoma          growth        96.6
17  CC(C)(O)/C=C/C(=O)[C@](C)(O)[C@H]1[C@H](O)C[C@@]2(C)[C@@H]3CC=C4[C@@H](C=C(O)C(=O)C4(C)C)[C@]3(C)C(=O)C[C@]12C  UACC-257 melanoma          growth       0.414
18                             NC(=O)C(Cl)Cl  UACC-257 melanoma          growth        94.8
19        COc1cc(C2(C#N)CCN(C)CC2)cc(OC)c1OC  UACC-257 melanoma          growth         108
